- System: Bacillus anthracis
- protocol: Antimicrobial activity against Bacillus anthracis Sterne by CLSI method
- Type: functional
- testContext: Bacillus anthracis, Sterne; read-out: MIC
Exercise: for every item that follows, state its recorded MIC.

Consider the worked cases shown below.
CC1CN=C(c2ccc3cc(-c4ccc(-c5cc6ccc(C7=NCC(C)CN7)cc6o5)cn4)[nH]c3c2)NC1 (centres undefined); 0.63 µg/mL
OC1CN=C(c2ccc3cc(-c4ccc(-c5cc6ccc(C7=NCC(O)CN7)cc6o5)cc4)[nH]c3c2)NC1 (centres undefined); 0.55 µg/mL
OC1CN=C(c2ccc3cc(-c4ccc(-c5cc6ccc(C7=NCC(O)CN7)cc6o5)cn4)[nH]c3c2)NC1 (centres undefined); 1.09 µg/mL

In the following, a different compound is considered.
Entry `c1cc2cc(-c3ccc(-c4cc5ccc(C6=NCCN6)cc5[nH]4)cc3)[nH]c2cc1C1=NCCN1` under Bacillus anthracis had MIC of 0.31 µg/mL

---

Can you tell me CC50 for the items I'm about to list?
- protocol: Cytotoxicity against human HeLa cells by MTS assay
- Assay type: cell-based
- testContext: HeLa cells
Give bare numbers, in µg/mL.

Worked examples, 6 compounds total:
c1cc2oc(-c3ccc(-c4cc5ccc(C6=NCCCN6)cc5[nH]4)cc3)cc2cc1C1=NCCCN1; 8.5
c1cc2cc(-c3ccc(-c4cc5ccc(C6=NCCCN6)cc5s4)cc3)[nH]c2cc1C1=NCCCN1; 5.9
c1cc2cc(-c3ccc(-c4cn5ccc(C6=NCCN6)cc5n4)cc3)[nH]c2cc1C1=NCCN1; 2.5
OC1CN=C(c2ccc3cc(-c4ccc(-c5cc6ccc(C7=NCC(O)CN7)cc6o5)s4)[nH]c3c2)NC1 (stereo not given); 12.7
OC1CN=C(c2ccc3cc(-c4ccc(-c5cc6ccc(C7=NCC(O)CN7)cc6o5)cn4)[nH]c3c2)NC1 (stereo not given); 16.7
c1cc2cc(-c3ccc(-c4cc5ccc(C6=NCCN6)cc5o4)cc3)[nH]c2cc1C1=NCCN1; 9.7

Return reported CC50 values for all items listed beneath this line.
1. CC1CNC(c2ccc3cc(-c4ccc(-c5cnc(N6CCOCC6)nc5)cc4)[nH]c3c2)=N1 (stereo not given)
2. NCCCNc1cc(-c2cc3ccc(C4=NCCCN4)cc3[nH]2)ccc1-c1cc2ccc(C3=NCCCN3)cc2o1
3. c1cc2cc(-c3ccc(-c4cc5ccc(C6=NCCCN6)cc5o4)cc3)[nH]c2cc1C1=NCCCN1
4. CC1CNC(c2ccc3cc(-c4ccc(-c5cnc(N6CCCC6)nc5)cc4)[nH]c3c2)=N1 (stereo not given)
5. c1cc2cc(-c3ccc(-c4cnc(N5CCCC5)nc4)cc3)[nH]c2cc1C1=NCCCN1
6. COC1CN=C(c2ccc3cc(-c4ccc(-c5cc6ccc(C7=NCC(OC)CN7)cc6o5)cc4)[nH]c3c2)NC1 (stereo not given)
7. Cc1c(-c2ccc(-c3cc4ccc(C5=NCCCN5)cc4o3)cc2)[nH]c2cc(C3=NCCCN3)ccc12

1. 1.3
2. 4.6
3. 26
4. 1.1
5. 5.7
6. 6
7. 1.5

Take each entry in turn and give its CC50.
1. c1cc2cc(-c3ccc(-c4nc5ccc(C6=NCCN6)cc5[nH]4)cc3)[nH]c2cc1C1=NCCN1
2. c1cc2cc(-c3ccc(-c4cc5ccc(C6=NCCCN6)cc5o4)s3)[nH]c2cc1C1=NCCCN1
3. FC1CN=C(c2ccc3cc(-c4ccc(-c5cc6ccc(C7=NCC(F)CN7)cc6o5)s4)[nH]c3c2)NC1 (stereo not given)
4. CC1CN=C(c2ccc3cc(-c4ccc(-c5cc6ccc(C7=NCC(C)CN7)cc6o5)cn4)[nH]c3c2)NC1 (stereo not given)
5. c1cc2cc(-c3ccc(-c4nc5ccc(C6=NCCCN6)cc5[nH]4)cc3)[nH]c2cc1C1=NCCCN1

8.6
8.7
22.5
2.2
27.6
